Target: T1, human LRP5 domains E3-E4 (E644-Q1263 of SEQ ID NO: 42) (human, UniProt O75197 644-1263)
T1 construct: Soluble fragment made in-house; It was biotinylated for phage sorting; also called LRP5-E3/E4; LRP5E3/E4
T1 sequence: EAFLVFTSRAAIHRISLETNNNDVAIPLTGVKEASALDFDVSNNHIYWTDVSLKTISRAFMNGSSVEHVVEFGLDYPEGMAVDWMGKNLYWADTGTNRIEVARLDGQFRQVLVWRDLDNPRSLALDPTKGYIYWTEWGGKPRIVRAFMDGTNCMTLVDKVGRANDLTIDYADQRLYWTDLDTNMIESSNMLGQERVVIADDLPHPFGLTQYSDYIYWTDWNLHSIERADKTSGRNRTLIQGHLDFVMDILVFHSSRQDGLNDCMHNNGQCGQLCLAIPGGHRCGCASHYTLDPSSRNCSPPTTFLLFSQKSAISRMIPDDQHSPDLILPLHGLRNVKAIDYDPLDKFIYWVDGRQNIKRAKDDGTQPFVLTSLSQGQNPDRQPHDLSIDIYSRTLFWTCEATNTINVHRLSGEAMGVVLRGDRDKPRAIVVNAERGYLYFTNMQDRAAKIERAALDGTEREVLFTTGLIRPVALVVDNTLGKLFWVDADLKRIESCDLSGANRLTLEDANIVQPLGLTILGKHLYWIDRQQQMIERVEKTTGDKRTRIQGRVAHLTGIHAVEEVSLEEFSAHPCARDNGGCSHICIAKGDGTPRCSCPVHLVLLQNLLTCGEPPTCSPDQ
Assay Overview: SPR, BIAcore T100, IgG captured by anti-human Fc, LRP5E3/E4 as analyte, 25 C
Each entry below lists one item and its recorded koff value.
Please respond with the number in s⁻¹ and leave the unit unwritten.

YW629.42.65 (antibody, human IgG1, V domains shown, also called P6C.42.65) VH: EVQLVESGGGLVQPGGSLRLSCAASGFTFSSYAMSWVRQAPGKGLEWVGGISSPGSSTYYADSVKGRFTISRDNSKNTLYLQMNSLRAEDTAVYYCARYYRYAPYRSLGMDVWGQGTLVTVSS VL: DIQMTQSPSSLSASVGDRVTITCRASQGISSYLAWYQQKPGKAPKLLIYAASSLQSGVPSRFSGSGSGTDFTLTISSLQPEDFATYYCQQYYLYPFTFGQGTKVEIKR    9.63e-05
YW629.42.57 (antibody, human IgG1, V domains shown, also called P6C.42.57) VH: EVQLVESGGGLVQPGGSLRLSCAASGFTFSSYAMSWVRQAPGKGLEWVGAISAPGSSTYYADSVKGRFTISRDNSKNTLYLQMNSLRAEDTAVYYCARYYRYAPYRSLGMDVWGQGTLVTVSS VL: DIQMTQSPSSLSASVGDRVTITCRASQGISSYLAWYQQKPGKAPKLLIYAASSLQSGVPSRFSGSGSGTDFTLTISSLQPEDFATYYCQQYYSYPFTFGQGTKVEIKR    0.000163

// field: koff; key: YW629.42 (antibody, human IgG1, V domains shown, also called P6C.42) VH: EVQLVESGGGLVQPGGSLRLSCAASGFTFSSYAMSWVRQAPGKGLEWVGAISSSGSSTYYADSVKGRFTISRDNSKNTLYLQMNSLRAEDTAVYYCARYYRYAPYRSLGMDVWGQGTLVTVSS VL: DIQMTQSPSSLSASVGDRVTITCRASQGISSYLAWYQQKPGKAPKLLIYAASSLQSGVPSRFSGSGSGTDFTLTISSLQPEDFATYYCQQYYSYPFTFGQGTKVEIKR ; value = 0.00116
